Please provide measured composite z-score for the entries that follow.
assay: probe aCHRDL2 binding to arrayed compounds – biochemical, biotinylated probe, 635/667 nm fluorescence, primary screen (AID 1100); details: small-molecule microarray, higher = more signal

So what's the measured composite z-score for this one? O=C(CS)NCCCCCCNC(=O)[C@H]1C[C@H]2C(=O)N3CCC[C@H]3C(=O)N2[C@H]1c1ccc(O)cc1 0.0018

Try the molecule C=CCC(OC(C)=O)[C@@H]1[C@@H](N(Cc2cc3ccccc3o2)C(=O)c2ccc(-c3ccccc3)cc2)c2cc(OCCCO)ccc2N1C(=O)Cc1ccc2ccccc2c1 (stereo partly specified) 0.351

Try the molecule COCCOC(=O)N1C(=O)[C@@]2(c3cc(C#CCC(C(=O)OC)C(=O)OC)ccc31)[C@H](c1ccccc1OCCO)N1[C@H](c3ccccc3)[C@H](c3ccccc3)OC(=O)[C@H]1[C@@H]2C(=O)Nc1nc2ccccc2s1 0.641

Try the molecule [N-]=[N+]=NCc1ccccc1C[C@]1(C(=O)NCCN2CCOCC2)N=C(c2ccc(OCCCO)cc2)O[C@H]1c1ccccc1CN=[N+]=[N-] 0.71

Try the molecule CC(C)C(O)C1C=CC2C(=O)N(C)C(=O)C2N1N1CCCCC1 (stereo unspecified) 0.674

Try the molecule Cc1ccc(S[C@]2(C(=O)NCCCN(C)C)CC(=O)N(C(C)C)[C@@H]2c2ccc(CO)cc2I)cc1 0.789

Try the molecule CN(C)CCCCNC(=O)[C@@H]1C[C@@H]2C(=O)N[C@@H](CCCCN)C(=O)N2[C@@H]1c1cccc(OCCO)c1 0.74

Try the molecule CC(C)(C)OC(=O)CC[C@@]1(C(N)=O)N=C(c2ccc(OCCCO)cc2)O[C@@H]1c1ccccc1N=[N+]=[N-] 0.83

Try the molecule C=C[C@H](C)[C@H](OC(=O)Nc1ccc(OC)cc1)c1ccc(O)c2ccccc12 0.242

Try the molecule Cc1ccc(S[C@]2(C(=O)NCCN3CCOCC3)CC(=O)N(C3CCCCC3)[C@@H]2c2ccc(CO)cc2)cc1 0.781

Try the molecule C=CC[C@@]1(C(=O)NCc2ccccc2)N=C(c2ccc(OCCCO)cc2)O[C@@H]1c1ccccc1CN=[N+]=[N-] 0.953

Try the molecule [N-]=[N+]=Nc1ccccc1[C@H]1OC(c2ccc(OCCCO)cc2)=N[C@@]1(CCS(=O)(=O)c1ccccc1)C(=O)N1CCOCC1 1.46

Try the molecule CCOC(=O)C1=CC[C@@H](c2ccccc2)N(S(=O)(=O)c2ccc(C)cc2)[C@H]1c1ccc(C#N)cc1 1.18

Try the molecule C=C(COC)C(=O)CC[C@@H](OC(=O)c1ccccc1-c1ccccc1C(=O)O)c1ccc(CO)o1 -0.69

Try the molecule CC(C)OC(=O)C1=CCC(c2cccc(Cl)c2)O1 (stereo unspecified) 0.461

Try the molecule CC(=O)NCCCC[C@@H]1NC(=O)[C@@H]2C[C@H](C(=O)NCc3ccc(F)cc3)[C@H](c3ccc(O)cc3)N2C1=O -0.072

---

assay: probe aEGFR binding to arrayed compounds – biochemical, biotinylated probe, 635/667 nm fluorescence, primary screen (AID 1097); conditions: small-molecule microarray, higher = more signal;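 further: probe is a biotinylated anti-EGFR antibody binding compounds printed on slides; score combines fluorescence near 667 nm and signal to noise of each spot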
Grouping by measured composite z-score is done with the following cut points: lower bin: < -0.2; middle bin: ≥ -0.2 and < -0.02; upper bin: ≥ -0.02

Lab note: sort CC(=O)NCCCC[C@@H]1NC(=O)[C@@H]2C[C@H](C(=O)NCc3ccc(F)cc3)[C@H](c3ccc(O)cc3)N2C1=O into the matching composite z-score band. middle bin

Try the compound Oc1ccc2cc[n+](Cc3cccc(OC(F)(F)F)c3)cc2c1 upper bin

Try the compound Cc1cccc(/C=C/C=O)c1 lower bin

Try the compound CN(C)CCCC[C@@H]1NC(=O)[C@H]2C[C@@H](C(=O)NCCCCCNC(=O)CS)[C@@H](c3ccc(O)cc3)N2C1=O middle bin

Try the compound CC(=O)N1Cc2ccccc2C[C@@]2(N=C(c3ccc(OCCCO)cc3)O[C@H]2c2ccccc2)C1=O upper bin

Try the compound CCCC[C@H]1OB(O)C[C@H]2C1=C(C)Cn1c(=O)n(-c3ccccc3)c(=O)n12 middle bin

Try the compound CC(C)N1C(=O)c2ccccc2[C@](C)(C(=O)NC2CC2)[C@@H]1c1ccc(CO)cc1 middle bin

Try the compound COC(=O)[C@@]1(Cc2ccc(OC)cc2)[C@H]2c3cc(C(=O)N4CCCC4)n(C[C@H](O)CO)c3C[C@H]2CN1C(=O)c1ccccc1 middle bin

Try the compound CCCCN1CC=CC23O[C@@H]4C=CCCOC(=O)C4[C@H]2C(=O)N(CCCO)[C@@H]3C1=O (some centres not stated) lower bin

Try the compound CN1C(=O)C2C=CC(C(O)C(c3ccccc3)c3ccccc3)N(Nc3ccccc3)C2C1=O (configuration not stated) upper bin

Try the compound [N-]=[N+]=NCc1ccccc1[C@H]1OC(c2ccc(OCCCO)cc2)=N[C@@]1(Cc1ccccc1)C(=O)O upper bin

Try the compound O=C1O[C@H](c2ccccc2)[C@H](c2ccccc2)N2[C@H]1[C@@H](C(=O)N1CCCCCCC1)[C@]1(C(=O)Nc3ccc(C#CC4=CCCCC4)cc31)[C@H]2c1ccc(O)cc1 upper bin

Try the compound O=C1OCC=C[C@H]2OC34C=CCN(c5ccc(Cl)cc5)C(=O)[C@H]3N(CCCO)C(=O)[C@@H]4[C@@H]12 (some centres not stated) lower bin

Try the compound CCOC(=O)C[C@H]1[C@H](OC(=O)c2cc3ccccc3oc2=O)[C@@H](NC(=O)c2ccc3ccccc3c2)c2cc(OCCCO)ccc2N1C(=O)c1ccccc1 middle bin

Try the compound Cc1ccc(S(=O)(=O)N2CC(C(=O)O)=CCC2c2ccccc2)cc1 (configuration not stated) upper bin

Try the compound CN(C)CCCCCCNC(=O)[C@@H]1C[C@@H]2C(=O)N[C@@H](Cc3ccccc3)C(=O)N2[C@@H]1c1cccc(OCCO)c1 middle bin

Try the compound COCCCNC(=O)[C@@]1(C)c2ccccc2C(=O)N(Cc2ccccc2)[C@H]1c1ccc(CO)cc1 middle bin

---

test system: Noggin (protein binding on small-molecule microarray); test: small molecules binding Noggin protein – biochemical, 635/667 nm fluorescence, primary screen (AID 1095); conditions: 635 nm fluorescence, higher = more signal;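 further: score merges 667 nm feature fluorescence with signal to noise over triplicate slides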
Property label: composite z-score
Number only, no unit.

Can you look up composite z-score on Noggin (protein binding on small-molecule microarray) for CCOC(=O)C1=CC[C@@H](c2ccccc2)N(S(=O)(=O)c2ccc(C)cc2)[C@H]1c1ccc(C#N)cc1 ? -0.232

Try the compound COC(=O)[C@@]1(Cc2ccc(F)cc2)[C@H]2c3cc(C(=O)N(C)C)n(CCc4c[nH]c5ccc(OC)cc45)c3C[C@H]2CN1C(=O)c1ccccc1 -0.682

Try the compound CCCC[C@@H]1C[C@H]1[C@@H](NC(=O)c1ccccc1)c1ccccc1 0.226

Try the compound CCCCCCC#C[Si](O[C@H](c1ccccc1)c1cn([C@H](C)c2ccccc2)nn1)(C(C)C)C(C)C 0.476

Try the compound C=CCNC(=O)[C@H]1[C@@H]2C(=O)O[C@@H](c3ccccc3)[C@@H](c3ccccc3)N2[C@@H](c2ccc(O)cc2)[C@]12C(=O)Nc1ccc(C#Cc3ccc(OC)cc3)cc12 0.41

Try the compound Cc1ccc(C(C)CC(O)C2C=CC3C(=O)NC(=O)C3N2Nc2ccccn2)o1 (configuration not stated) 0.312

Try the compound CCN(CC)c1ccc(N2CC=CC34O[C@@H]5C=CCCOC(=O)C5[C@H]3C(=O)N(CCCO)[C@@H]4C2=O)cc1 (some centres not stated) 0.232

---

assay: change in splice reporter luminescence, either direction, cell-based, HEK293, spliceosome inhibition project, primary screen (AID 1101); conditions: HEK293 splicing luciferase reporter, 24 h, higher = more signal, called active from +8 up or from −8 down;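 further: HEK293 cells carrying a splicing-competent luciferase reporter gene; test concentration not given here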
Grouping by measured z-score is done with the following cut points: low: < -0.9; mid: ≥ -0.9 and < -0.2; high: ≥ -0.2

Lab note: sort COc1ccc(C(=O)Nc2cccc(CN3C(=O)[C@@]4(O[C@@H](CC(=O)N5Cc6ccccc6C[C@H]5CO)[C@H]([Si](C)(C)c5ccc(OC)cc5)[C@H]4C)c4ccccc43)c2)cc1 into the matching z-score band. low

Try the molecule O=C1C2C=CC(C(O)C3CC=CCC3)N(n3cnnc3)C2C(=O)N1Cc1ccccc1 (stereo not given) high

Try the molecule NC(=O)NCC#Cc1ccc2c(c1)[C@]1(C(=O)N2)[C@H](C(=O)NC[C@H](O)c2ccccc2)[C@H]2C(=O)O[C@H](c3ccccc3)[C@H](c3ccccc3)N2[C@@H]1c1ccccc1OCCO mid

Try the molecule CC(C)(C)OC(=O)CC[C@]1(C(=O)NCC(O)CO)N=C(c2ccc(OCCCO)cc2)O[C@H]1c1ccccc1CN=[N+]=[N-] (stereo not given in full) high

Try the molecule O=C(NCC(O)CO)[C@]1(CCS(=O)(=O)c2ccccc2)N=C(c2ccc(OCCCO)cc2)O[C@@H]1c1ccccc1 (stereo not given in full) high

Try the molecule CCOC(=O)C=Cc1cccc(OC)c1O low

Try the molecule CC(C)(C)OC(=O)CC[C@@]1(C(N)=O)N=C(c2ccc(OCCCO)cc2)O[C@@H]1c1ccccc1N=[N+]=[N-] mid

Try the molecule CCN(CC)c1ccc(N2CC=CC34O[C@@H]5C=CCCOC(=O)C5[C@H]3C(=O)N(CCCO)[C@@H]4C2=O)cc1 (stereo not given in full) mid

Try the molecule COc1cc(CO)cc(I)c1O[C@H]1C=C(C(=O)NCCO)C[C@@H](N(CCc2cccc(F)c2)C(=O)CCC2CCCC2)[C@@H]1O low

Try the molecule CCCCCCC#C[Si](O[C@H](c1ccccc1)c1cn([C@H](C)c2ccccc2)nn1)(C(C)C)C(C)C mid

Try the molecule C[N+](C)(C)CCCC[C@@H]1NC(=O)[C@@H]2C[C@H](C(=O)NCCCCCCNC(=O)CS)[C@H](c3cccc(OCCO)c3)N2C1=O mid

Try the molecule C=CC[C@]1(C(=O)NCCN2CCOCC2)N=C(c2ccc(OCCCO)cc2)O[C@H]1c1ccccc1N=[N+]=[N-] mid

Try the molecule COc1ccc([Si](C)(C)[C@H]2[C@H](CC(=O)N3CCC[C@H]3CO)O[C@@]3(C(=O)N(Cc4cccc(N5CCC5=O)c4)c4ccccc43)[C@@H]2C)cc1 high

Try the molecule C=CCN1Cc2ccccc2C[C@@]2(COC(c3ccc(OCCCO)cc3)=N2)C1=O low
